All values here come from PubChem BioAssay (NCI).

- Test system: SK-MEL-2 melanoma
- Test name: NCI-60 one-dose screen, 48 h
- Test settings: 10 µM unless noted
The panel holds about 83,000 compounds, 20% with a hit somewhere; the sample as a whole holds those more often. The source made the active and inactive calls. Rule for the calls: active = growth percent below 10; inactive = the rest.
Outcome codes: active, inactive

In [3]: df
Out[3]:
                                    compound  class_label
 0  CCc1cccc(C)c1NC(=O)c1sc2nc3c(cc2c1N)C(=O)CCC3     inactive
 1  CCC(c1ccc(OC)cc1)C(CC)c1ccc(O)c(CN2CCCC2)c1 (stereo unspecified)       active
 2  COc1cccc2nc(Nc3ccc(NC(=O)c4ccc5ncccc5c4)cc3)ccc12     inactive
 3  c1ccc2c(c1)Oc1ccccc1C2C1c2ccccc2Oc2ccccc21     inactive
 4  O=C(CNC1CCCCC1)Nc1ccc(-c2nc3ccccc3s2)cc1     inactive
 5  O=C(O)c1cccc([N+](=O)[O-])c1/C=C/c1ccccc1     inactive
 6  CC(=O)C1CCC(C)=CC1=O (stereo unspecified)     inactive
 7  CCOC(=O)c1cc(/C(=N\O)c2cc(OC)c(OC)c(OC)c2)n2cc(C)cc(C)c12       active
 8  CNC(=O)c1cc(Oc2ccc3c(c2)sc2nc(-c4ccc(Cl)cc4)cn23)ccn1     inactive
 9                CC(=O)OC[Si](C)(C)c1ccccc1     inactive
10  COc1ccc(C2CC(c3cccs3)=NN2c2ccc(S(=O)(=O)NC(=O)NCc3cccc(OC)c3)cc2)cc1 (stereo unspecified)     inactive
